Target: Dual specificity tyrosine-phosphorylation-regulated kinase 1A (Homo sapiens) (UniProt Q13627)
Experiment: Assay for Inhibitors of Dual-Specificity Tyrosine-(Y)-Phosphorylation Regulated Kinase 1A (Kinase-Glo assay): round 2 SAR
Settings: recombinant DYRK1A, Kinase-Glo ATP depletion luminescence; series mostly up to 76.9 µM
Inconclusive results are not listed. The source made the active and inactive calls. Calls come from the whole dose curve; as a rule, active = well fitted inhibition curve with a large enough effect; inconclusive = small, poorly fitted or top-dose-only effect; inactive = flat fitted curve, though single readings scatter.
Your response should consist of one outcome taken from 1 (yes) for active, 0 (no) for inactive

molecule | category
O=C(O)c1ccc(-c2ccc3ncnc(NCC4CCCO4)c3c2)o1 (stereo not given) | 1 (yes)
Cc1csc(CNc2ncnc3ccc(-c4ccoc4)cc23)c1 | 1 (yes)
CN(C)CCCNc1ncnc2ccc(-c3ccc4c(c3)OCO4)cc12 | 1 (yes)
CS(=O)(=O)CCNCc1ccc(-c2ccc3ncnc(Nc4ccc(OCc5cccc(F)c5)c(Cl)c4)c3c2)o1 | 0 (no)

Continue with the next molecule.
// outcome(item) with item = `c1nc(N2CCNCC2)c2cc(-c3ccc4c(c3)OCO4)ccc2n1`
1 (yes)

----------
Molecular target: Dual specificity tyrosine-phosphorylation-regulated kinase 1A (Homo sapiens) (UniProt Q13627)
Assay: Assay for Inhibitors of Dual-Specificity Tyrosine-(Y)-Phosphorylation Regulated Kinase 1A (Kinase-Glo assay): round 2 SAR
Settings: recombinant DYRK1A, Kinase-Glo ATP depletion luminescence; series mostly up to 76.9 µM
Text: NIH Molecular Libraries Probe Production Centers Network [MLPCN] NIH Chemical Genomics Center [NCGC] MLPCN Grant: 1R03MH084827-01 PI Name: Tom Misteli NCGC Assay Overview: The CMGC group of protein kinases which includes CDK-like kinases (Clk) and Dyks are essential kinases found in all eukaryotes. […]
Records with an inconclusive call do not appear. The source made the active and inactive calls. Calls follow the shape of the dose curve; as a rule, active = well fitted inhibition curve with a large enough effect; inconclusive = small, poorly fitted or top-dose-only effect; inactive = flat fitted curve, though single readings scatter.
Entries annotated with measured Potency

Some compounds with recorded Potency:
structureAsSmiles | result
c1cncc(CNc2ncnc3ccc(-c4ccc5c(c4)OCCO5)cc23)c1 | 1.16 µM (active)
Cc1csc(CNc2ncnc3ccc(-c4ccc5c(c4)OCCO5)cc23)c1 | 1.64 µM (active)
O=C(O)c1ccc(-c2ccc3ncnc(N4CCOCC4)c3c2)o1 | 26 µM (active)
c1nc(NCC2CCCCC2)c2cc(-c3ccc4c(c3)OCO4)ccc2n1 | 0.26 µM (active)
COc1cccc(Nc2ncc3ncc(=O)n(C)c3n2)c1 | 11.6 µM (active)

Proceeding to the next compound to report its Potency.
Potency for `c1cncc(-c2ccc3ncnc(NCc4cccs4)c3c2)c1` ?
23.2 µM (active)

----------
Molecular target: Dual specificity tyrosine-phosphorylation-regulated kinase 1A (Homo sapiens) (UniProt Q13627)
Assay: Assay for Inhibitors of Dual-Specificity Tyrosine-(Y)-Phosphorylation Regulated Kinase 1A (Kinase-Glo assay): round 2 SAR
Conditions: recombinant DYRK1A, Kinase-Glo ATP depletion luminescence; series mostly up to 76.9 µM
Records with an inconclusive call do not appear. Activity calls are given as the source filed them. Calls follow the shape of the dose curve; as a rule, active = well fitted inhibition curve with a large enough effect; inconclusive = small, poorly fitted or top-dose-only effect; inactive = flat fitted curve, though single readings scatter.
Your response should consist of one outcome taken from active, inactive

Solved cases below.
structureAsSmiles | category
c1csc(CNc2ncnc3ccc(-c4ccc5c(c4)OCO5)cc23)n1 | active
Cc1cccc(CNc2ncnc3ccc(-c4ccc5c(c4)OCCO5)cc23)c1 | active
Cc1csc(CNc2ncnc3ccc(-c4ccc(C(=O)O)o4)cc23)n1 | active

Continue with the next compound.
// outcome(item) with item = `c1nc(NCc2ccc3c(c2)OCO3)c2cc(-c3ccc4c(c3)OCCO4)ccc2n1`
active
